target_desc: cdk1/cyclin B (CDC2) (Homo sapiens)
Sequence (P06493 whole entry, species assumed): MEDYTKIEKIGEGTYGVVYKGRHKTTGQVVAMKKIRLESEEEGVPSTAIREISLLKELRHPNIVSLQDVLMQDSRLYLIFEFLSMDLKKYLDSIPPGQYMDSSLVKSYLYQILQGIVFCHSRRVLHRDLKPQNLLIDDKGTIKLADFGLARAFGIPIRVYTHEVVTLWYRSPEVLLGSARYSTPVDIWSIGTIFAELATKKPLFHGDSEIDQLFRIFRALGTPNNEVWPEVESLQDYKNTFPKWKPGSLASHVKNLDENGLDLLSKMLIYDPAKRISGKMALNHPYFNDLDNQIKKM
Sequence (P14635 whole entry partner, species assumed): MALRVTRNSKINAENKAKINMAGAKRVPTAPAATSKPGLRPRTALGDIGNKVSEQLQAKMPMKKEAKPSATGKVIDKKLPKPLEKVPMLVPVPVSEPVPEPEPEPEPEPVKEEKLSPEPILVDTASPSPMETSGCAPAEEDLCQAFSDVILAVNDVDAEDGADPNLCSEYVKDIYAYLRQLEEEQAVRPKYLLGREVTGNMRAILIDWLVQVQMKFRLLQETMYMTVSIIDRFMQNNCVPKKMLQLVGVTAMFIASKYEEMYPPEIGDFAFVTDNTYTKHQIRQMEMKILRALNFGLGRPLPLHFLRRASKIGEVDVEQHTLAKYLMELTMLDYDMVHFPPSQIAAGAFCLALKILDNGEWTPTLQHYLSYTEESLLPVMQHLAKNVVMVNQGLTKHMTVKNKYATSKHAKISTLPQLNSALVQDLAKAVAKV
test_description: CDK inhibition assay, cdk1/cyclin B (CDC2) kinase, histone phosphorylation
Type: biochemical
Description: Selected compounds were tested for cdk1/cyclin B and cdk2/cyclin E inhibitory activity to determine the basic relationships between their interaction energy of docked complex and the inhibitory activity. Cdk2/cyclin E complex was produced in SIP insect cells co-infected with appropriate baculoviral construct. […] The kinase activity was expressed as a percentage of maximum activity and the IC50 value was determined by graphic analysis. […]
pIC50: −log10 of the molar value.
measured_quantity: pIC50

1. CC(C)c1n[nH]c2c(NCc3ccccc3)nc(NCCN)nc12 = 6.40
2. CC(C)c1n[nH]c2c(N(C)Cc3ccc(O)c(O)c3)nc(N[C@@H](CO)C(C)C)nc12 = 7.52
3. CC(C)c1n[nH]c2c(NCc3c(N)cccc3Cl)nc(N[C@@H](CO)C(C)C)nc12 = 9.05
4. CC(C)c1n[nH]c2c(Nc3cc(N)cc(Cl)c3)nc(N[C@@H](CO)C(C)C)nc12 = 8.10
5. CC[C@H](CO)Nc1nc(NCc2cccc(C)c2O)c2[nH]nc(C(C)C)c2n1 = 8.22
